- Protocol: Antiproliferative activity against human L78 cells after 72 hrs by MTT assay
- Assay type: functional, cell-based
- Condition notes: L78, 72 h
Reported IC50 values are given for each entry in this list.
Expressed in µM, but write only the number.

Please review the following examples before continuing.
>>> print(df.to_string())
                                 smiles_str  readout_unit  experimental_value
0  COc1cccc2c1C(=O)c1c(O)c3c(c(O)c1C2=O)C[C@@](O)(C(=O)CO)C[C@@H]3O[C@H]1C[C@H](N)[C@H](O)[C@H](C)O1            µM                 2.4
1  O=C1C=C(N2CCC(c3ccc(Cl)cc3)CC2)C(=O)c2c(O)cccc21            µM                40.6
2  O=C1C=C(N2CCN(c3ccccc3)CC2)C(=O)c2c(O)ccc(O)c21            µM                 1.9

Let's switch to this molecule now.
What value of IC50 has been reported for the following molecule? COc1ccccc1N1CCN(C2=CC(=O)c3cccc(O)c3C2=O)CC1 4.6
